# Measurement Notes: Cytotoxicity against mouse BV2 cells assessed as cell viability at 20 uM measured after 24 hrs by MTT assay relative to control
# Assay type: cell-based, BV-2
# Condition Info: read-out: Activity
Readout Label: viability at 24 h, 20 µM
Answer format: number, then unit.

Before answering, review these 5 worked examples.
1. C=C(CC(=O)C[C@@H](C)[C@H]1CC[C@@]2(C)C3=CC[C@H]4C(C)(C)C(=O)CC[C@]4(C)[C@@H]3CC[C@]12C)C(=O)O = 125%
2. C=C[C@@](C)(O)[C@H]1C[C@@H]2[C@@]3(C)CCCC(C)(C)[C@@H]3CC[C@@]2(C)O1 = 118%
3. C=C(C)[C@@H]1CC=C2[C@@H](CC[C@]23C(=C)CC[C@@]3(C)[C@H](C)CC(=O)/C=C(\C)C(=O)O)[C@@]1(C)CCC(=O)O = 136%
4. CNC(=N)NCCC[C@H](N)C(=O)O [TILARGININE] = 105%
5. C/C(=C\C(=O)C[C@@H](C)[C@@H]1CC=C2C3=CC[C@H]4C(C)(C)[C@H](O)CC[C@]4(C)[C@@H]3CC[C@]21C)C(=O)O = 9.9%

Lookup: // viability at 24 h, 20 µM lookup, key: `CC1(C)CCC[C@]2(C)[C@H]3CC(=O)O[C@]3(C)CC[C@@H]12`
Found: 131%

Lookup: Same thing, different compound: `C[C@]12CCC[C@@](C)(C(=O)O)[C@@H]1CCC1=CC(=O)CC[C@@H]12`
Found: 124%

Lookup: Another compound to check: CC(=O)/C=C/C1[C@](C)(O)CC[C@H]2C(C)(C)CCC[C@]12C (stereo partly drawn)
Found: 114%
